Recorded values, source paper PMC6770189.

Substrate: [H][C@]12SCC(COC(C)=O)=C(C(=O)O)N1C(=O)[C@H]2NC(=O)CCC[C@@H](N)C(=O)O
test-name: CPC consumption by HPLC, initial rates
Type: biochemical, Trigonopsis variabilis
protocol-conditions: 0.1 M potassium phosphate pH 8.0, 30 °C, air saturated
Reported Km values for the following proteins.
Expressed in µM, but write only the number.

Here's what some known entries look like.
{"columns": ["protein", "Km, µM"],
 "data": [
  ["TvDAAO (Trigonopsis variabilis; C108F/E32R/F33D/F54S) (protein, FAD-containing; no tag mentioned) MAKIVVIGAGVAGLTTALQLLRKGHEVTIVSRDTPGDLSIGYTSPWAGANWLTSYDGGKLADYDAVSYPILRELARSSPEAGIRLISQRSHVLKRDLPKLEVAMSAIFQRNPWFKNTVDSFEIIEDRSRIVHDDVAYLVEFRSVCIHTGVYLNWLMSQCLSLGATVVKRRVNHIKDANLLHSSGSRPDVIVNCSGLFARFLGGVEDKKMYPIRGQVVLVRNSLPFMASFSSTPEKENEDEALYIMTRFDGTSIIGGCFQPNNWSSEPDPSLTHRILSRALDRFPELTKDGPLDIVRECVGHRPGREGGPRVELEKIPGVGFVVHNYGAAGAGYQSSYGMADEAVSYVERALTRPNL", 1900],
  ["TvDAAO (Trigonopsis variabilis; C108F/C298Q/E32R/F33D/F54S/M156L) (protein, FAD-containing; no tag mentioned) MAKIVVIGAGVAGLTTALQLLRKGHEVTIVSRDTPGDLSIGYTSPWAGANWLTSYDGGKLADYDAVSYPILRELARSSPEAGIRLISQRSHVLKRDLPKLEVAMSAIFQRNPWFKNTVDSFEIIEDRSRIVHDDVAYLVEFRSVCIHTGVYLNWLLSQCLSLGATVVKRRVNHIKDANLLHSSGSRPDVIVNCSGLFARFLGGVEDKKMYPIRGQVVLVRNSLPFMASFSSTPEKENEDEALYIMTRFDGTSIIGGCFQPNNWSSEPDPSLTHRILSRALDRFPELTKDGPLDIVREQVGHRPGREGGPRVELEKIPGVGFVVHNYGAAGAGYQSSYGMADEAVSYVERALTRPNL", 1400],
  ["TvDAAO (Trigonopsis variabilis; C108F/C298G/E32R/F33D/F54S/M156L) (protein, FAD-containing; no tag mentioned) MAKIVVIGAGVAGLTTALQLLRKGHEVTIVSRDTPGDLSIGYTSPWAGANWLTSYDGGKLADYDAVSYPILRELARSSPEAGIRLISQRSHVLKRDLPKLEVAMSAIFQRNPWFKNTVDSFEIIEDRSRIVHDDVAYLVEFRSVCIHTGVYLNWLLSQCLSLGATVVKRRVNHIKDANLLHSSGSRPDVIVNCSGLFARFLGGVEDKKMYPIRGQVVLVRNSLPFMASFSSTPEKENEDEALYIMTRFDGTSIIGGCFQPNNWSSEPDPSLTHRILSRALDRFPELTKDGPLDIVREGVGHRPGREGGPRVELEKIPGVGFVVHNYGAAGAGYQSSYGMADEAVSYVERALTRPNL", 800]
]}

Okay, now this protein:
input: Record request: Km value, item TvDAAO (Trigonopsis variabilis) (protein, FAD-containing; no tag mentioned) MAKIVVIGAGVAGLTTALQLLRKGHEVTIVSEFTPGDLSIGYTSPWAGANWLTFYDGGKLADYDAVSYPILRELARSSPEAGIRLISQRSHVLKRDLPKLEVAMSAICQRNPWFKNTVDSFEIIEDRSRIVHDDVAYLVEFRSVCIHTGVYLNWLMSQCLSLGATVVKRRVNHIKDANLLHSSGSRPDVIVNCSGLFARFLGGVEDKKMYPIRGQVVLVRNSLPFMASFSSTPEKENEDEALYIMTRFDGTSIIGGCFQPNNWSSEPDPSLTHRILSRALDRFPELTKDGPLDIVRECVGHRPGREGGPRVELEKIPGVGFVVHNYGAAGAGYQSSYGMADEAVSYVERALTRPNL
output: 1400
